- assayed.target: human Rio1 (Homo sapiens, UniProt Q9BRS2)
- Construct: Human recombinant kinase Rio1 containing residues 134–494 was expressed and purified as previously reported; made in house
- Sequence (Q9BRS2 134-494): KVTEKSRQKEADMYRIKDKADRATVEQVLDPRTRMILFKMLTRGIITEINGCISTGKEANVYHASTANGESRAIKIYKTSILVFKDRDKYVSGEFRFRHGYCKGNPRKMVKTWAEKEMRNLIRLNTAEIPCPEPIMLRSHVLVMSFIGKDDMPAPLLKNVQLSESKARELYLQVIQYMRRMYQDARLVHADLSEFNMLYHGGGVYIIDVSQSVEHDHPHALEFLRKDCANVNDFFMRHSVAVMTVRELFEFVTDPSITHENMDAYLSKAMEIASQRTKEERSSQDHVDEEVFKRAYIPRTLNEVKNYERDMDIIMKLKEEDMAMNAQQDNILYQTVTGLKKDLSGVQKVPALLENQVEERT
- assay.text: Rio1 autophosphorylation assay ([γ-32P]ATP)
- Type: biochemical
- settings: 0.5 µM ATP, read-out: Ki (µM) ± SD Rio1
Entries and their Ki values follow.
quantity.measured: Ki (µM)

[[record]]
compound = "Brc1c(I)c(Br)c2nc[nH]c2c1I [K95, 4,6-dibromo-5,7-diiodobenzimidazole]"
value_reported = 0.164

[[record]]
compound = "CN(C)c1nc2c(I)c(I)c(I)c(I)c2n1C [TIdiMe]"
value_reported = 0.135

[[record]]
compound = "CC(CC(=O)O)Sc1nc2c(Br)c(Br)c(Br)c(Br)c2[nH]1 (centres unmarked) [TBSB]"
value_reported = 0.367

[[record]]
compound = "Cn1c(SCC(=O)O)nc2c(Br)c(Br)c(Br)c(Br)c21 [TBTS]"
value_reported = 0.39

[[record]]
compound = "N#Cc1cn([C@@H]2O[C@H](CO)[C@@H](O)[C@H]2O)c2ncnc(N)c12 [Toyocamycin, toyocamycin, reference compound]"
value_reported = 2.07


* * *

- assayed.target: UniProt:P68400
- Sequence (P68400 whole entry): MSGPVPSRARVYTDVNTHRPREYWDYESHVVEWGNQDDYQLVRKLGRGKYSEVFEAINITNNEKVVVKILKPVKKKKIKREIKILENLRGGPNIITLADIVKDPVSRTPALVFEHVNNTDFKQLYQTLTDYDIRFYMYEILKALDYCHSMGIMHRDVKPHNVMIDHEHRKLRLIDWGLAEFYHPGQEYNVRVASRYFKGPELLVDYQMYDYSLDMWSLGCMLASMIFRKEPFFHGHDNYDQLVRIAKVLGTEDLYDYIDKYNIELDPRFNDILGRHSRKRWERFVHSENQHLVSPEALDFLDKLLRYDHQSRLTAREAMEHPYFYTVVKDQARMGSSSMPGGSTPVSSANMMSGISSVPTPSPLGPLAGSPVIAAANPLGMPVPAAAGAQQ
- assay.text: CK2 phosphorylation assay (P2B substrate, [γ-32P]ATP)
- Assay type: biochemical
- Design: GST (N); made in house; host or cells: bacteria
- settings: 20 µM ATP, P2B protein substrate, 37 °C, 5 min; read-out: IC50 (µM) ± SD CK2
quantity.measured: log10 of IC50 (log10 of the value in µM)

[[record]]
compound = "CC(CC(=O)O)Sc1nc2c(Br)c(Br)c(Br)c(Br)c2[nH]1 (stereo not shown)"
assayed_target = "UniProt:P68400"
value_reported = -0.48

[[record]]
compound = "Cn1c(SCC(=O)O)nc2c(Br)c(Br)c(Br)c(Br)c21"
assayed_target = "UniProt:P68400"
value_reported = -0.22

[[record]]
compound = "CN(C)c1nc2c(Br)c(Br)c(Br)c(Br)c2n1C"
assayed_target = "UniProt:P68400"
value_reported = -0.41

[[record]]
compound = "Brc1c(I)c(Br)c2nc[nH]c2c1I"
assayed_target = "UniProt:P68400"
value_reported = -0.52

[[record]]
compound = "Clc1c(Cl)c(Cl)c2[nH]cnc2c1Cl"
assayed_target = "UniProt:P68400"
value_reported = 0.99

[[record]]
compound = "CN(C)c1nc2c(I)c(I)c(I)c(I)c2n1C"
assayed_target = "UniProt:P68400"
value_reported = -0.70

[[record]]
compound = "N#Cc1cn([C@@H]2O[C@H](CO)[C@@H](O)[C@H]2O)c2ncnc(N)c12 [Toyocamycin, toyocamycin, reference compound]"
assayed_target = "UniProt:P68400"
value_reported = 1.74

[[record]]
compound = "CC(CC(=O)O)Cn1c(N(C)C)nc2c(Br)c(Br)c(Br)c(Br)c21 (stereo not shown)"
assayed_target = "UniProt:P68400"
value_reported = 0.18

[[record]]
compound = "Cc1nc2c(I)c(I)c(I)c(I)c2[nH]1"
assayed_target = "UniProt:P68400"
value_reported = -1.18

[[record]]
compound = "Ic1c(I)c(I)c2[nH]cnc2c1I"
assayed_target = "UniProt:P68400"
value_reported = -1.08

